- System: SK-MEL-28 melanoma
- Measurement protocol: NCI tumour cell line growth inhibition, 48 h; in the data active = GI50 below about 0.43 µM; inactive = the rest
// one of active, inactive, no free text

Here are 2 compounds together with their reported answers.
                                   compound  discrete_label
0  CC(C)CNCC(O)COc1ccc(C(C)(C)c2ccc(OCC(O)CNCC(C)C)cc2)cc1 (stereo not drawn)        inactive
1  CCn1c(C(=O)N(C2CC2)C2CC2)cc2c3c(ncn3C)c(Nc3cc(C)n(C)n3)nc21        inactive

# input for lookup
Check the results log: what was the call for CCc1n(Cc2ccc3ccccc3n2)cc[n+]1Cc1ccc2ccccc2n1 ?
active

----------
Listing: TGI of selected molecules
- Tested on: SF-268 CNS
- Measurement protocol: NCI tumour cell line growth inhibition, 48 h

Below are worked cases with known answers.
Molecule	TGI
CC(=O)OCC1OC(n2c3c(c(-c4cccc5ccccc45)c(C#N)c2=S)CCCC3)C(OC(C)=O)C(OC(C)=O)C1OC(C)=O (stereo not given)	> 100 µM
CCCn1c(SC)nc(COC(=O)NC)c1COC(=O)NC	> 100 µM
Cc1cc(=O)n2nc(SCc3ccccc3)sc2n1	> 100 µM
CC(C)=CCC/C(C)=C/CC/C(C)=C/Cc1c(O)c2ccccc2oc1=O	> 100 µM
COc1nc2c(c(=O)n1C)N[C@H]1[C@H](OC(C)=O)[C@@H](OC(C)=O)CO[C@H]1N2	> 100 µM

Entry C=C(CCCCCCCCC)CC(=O)SCCNC(=O)CCNC(=O)C(O)C(C)(C)COP(=O)(O)OP(=O)(O)OCC1OC(n2cnc3c(N)ncnc32)C(O)C1OP(=O)(O)O (stereo not given) under SF-268 CNS had TGI of 15.3 µM

Record for C=C1SC(=Nc2c(C)cc(C)cc2C)N(C(=O)c2sc3ccccc3c2Cl)C12CCCCC2 under target or system SF-268 CNS: TGI reported as > 100 µM

Recorded TGI for Cc1ccc(C(C)(C)C[P+](C)(c2ccccc2)c2ccccc2)cc1 on SF-268 CNS was > 100 µM

SF-268 CNS TGI of COc1cc(/C=C\c2ccccc2)cc(OC)c1OC is 59.2 µM

Log: SF-268 CNS, molecule C[C@H](NC(=O)[C@@H]1CSSC[C@@H](NC(=O)c2nc3ccccc3cc2O)C(=O)NCC(=O)N1C)c1ccccc1 , TGI = 11 µM

----------
- Test system: MOLT-4 leukemia
- Measurement protocol: NCI tumour cell line growth inhibition, 48 h
Entries annotated with measured TGI

>>> df
                                   compound  reported_result
0  COC(=O)C(C(=O)C(=O)Nc1ccc(C(F)(F)F)cc1[N+](=O)[O-])c1csc(-n2nc(-c3ccccc3)cc2-c2ccccc2)n1 (stereo unspecified)         > 100 µM
1  Cc1ccc(-c2cc(-c3ccco3)c(C#N)c(=O)[nH]2)cc1         > 100 µM
2  CN(C)CCNC(=O)c1ccc(NCCCN(C)CCCNc2ccc3c(=O)n(CCN(C)C)c(=O)n4c5ccccc5c(=O)c2c34)c2c(=O)c3ccccc3[nH]c12           1.1 µM
3            Nc1cccc2c1C(=O)c1cccc(N)c1C2=O         > 100 µM
4  O=C1C=CC=CC2CC=C[C@@H](O)C12 (stereo partly specified)         > 100 µM
5  O=C(/C(=C\C(=O)c1cccs1)c1ccsc1)c1ccc(Br)cc1         > 100 µM
6  CC1OC(OCC2OC(Oc3c(-c4ccc(O)cc4)oc4cc(O)cc(O)c4c3=O)C(OC3OC(C)C(O)C(O)C3O)C(O)C2O)C(O)C(O)C1O (stereo unspecified)         > 100 µM
7              N=c1oc2ccc3ccccc3c2cc1C(N)=O         > 100 µM

Turning now to a further compound:
Documented TGI of CC(C)=CCC[C@@H](C)C1=C(Nc2ccccc2Cl)C(O)=C(C)C(=O)C1=O : 25.1 µM

----------
- Test system: NCI-H226 lung
- Measurement protocol: NCI tumour cell line growth inhibition, 48 h
Property measured: TGI

Check out these entries, answers already filled in.
                                   compound  reported_result
0  COc1ccc(-c2nc3sc(-c4ccc(Cl)cc4)cn3n2)cc1          > 50 µM
1  COC(=O)[C@H]1[C@@H](C(C)C)O[C@@H](C(C)C)O[C@H]1C(F)(F)F         > 100 µM
2  Cc1ccc(S(=O)(=O)NCCNC2=CC(=O)c3nc4ccccc4c4ccnc2c34)cc1          54.4 µM
3  O=C(O)C1C2CCC(O2)C1C(=O)N1CCCCC1 (configuration not stated)          16.6 µM

We now examine a further compound.
# TGI (compound: Nc1ncnc2c1ncn2C1CCC(COS(N)(=O)=O)C1 (configuration not stated) ) is > 100 µM

----------
As shown below, each of these molecules has a reported TGI value.
- Tested on: MOLT-4 leukemia
- Measurement protocol: NCI tumour cell line growth inhibition, 48 h
Field: numeric (µM). Do not append units.

>>> print(df.to_string())
                                smiles_code  property_measured  reported_result
0  C[C@H](NC(=O)[C@@H]1CSSC[C@@H](NC(=O)c2nc3ccccc3cc2O)C(=O)NCC(=O)N1C)c1ccccc1                TGI             3.27
1        COc1cc(/C=C\c2ccc(C)cc2)cc(OC)c1OC                TGI             0.51

Note to self: TGI recorded for CC(=O)NNc1nc(C)c(C(=O)NNC(=O)C(=O)Nc2c(C)cccc2C)s1 was 80.1

----------
Reported TGI values for a set of molecules
- System: SF-295 CNS
- Measurement protocol: NCI tumour cell line growth inhibition, 48 h

// below: answered molecules
>>> print(df.to_string())
                                   molecule  reported_result
0     Cc1cccc2c1[nH]c1[nH]c(=O)[nH]c(=O)c12         > 100 µM
1             COc1nc(N(C)C)nc2c1n(C)c[n+]2C         > 100 µM
2  Cc1ccc(C(=O)O)c(CC2Cc3c(C)cccc3C2=O)c1 (stereo unspecified)         > 100 µM

Reported TGI of [Cl][Pt+2][Cl].[NH-]C1CCCCC1[NH-] (stereo unspecified) : > 100 µM

Form field TGI, entry COc1ccc(-c2oc3c(OC)c(OC)c(OC)c(O)c3c(=O)c2OC)cc1OC : > 76.5 µM

Memo: CC[N+](C)(CC)CCC(O)(c1ccccc1)c1ccccc1 , reported TGI: > 100 µM

----------
- System: MDA-MB-231 breast
- Measurement protocol: NCI tumour cell line growth inhibition, 48 h
As shown below, each of these molecules has a reported GI50 value.

Solved entries:
Molecule	Property measured	Reported result
CN1CCN(c2ccc(NC(=O)c3nc4ccc5[nH]ncc5c4c4c3CCCC4)cc2C(F)(F)F)CC1	GI50	0.941 µM
Cc1c(S(C)(=O)=O)c(-c2cc(F)cc(N3CCN(c4ccc(NS(=O)(=O)c5ccc(N[C@H](CCN6CCC(C(=O)OCCCP(=O)(O)O)CC6)CSc6ccccc6)c(S(=O)(=O)C(F)(F)F)c5)cc4)CC3)c2)c(-c2ccc(Cl)cc2)n1C(C)C	GI50	3.13 µM

The molecule listed as COc1ccccc1/C=C/[N+](=O)[O-] shows GI50 equal to 2.06 µM

# molecule Clc1ccc(N2N=C(c3cccc(Nc4ccncc4)c3)CC2c2ccc3c(c2)OCO3)cc1 (stereo not drawn) ; its GI50 = 1.29 µM

Entry C=CCN(/C=C1/C(=O)O[C@H](COC)[C@@]2(C)C1=C(O)C(=O)C1=C2[C@H](OC(C)=O)C[C@]2(C)C(=O)CC[C@@H]12)CC=C , GI50 reported as 6.23 µM

----------
- Tested on: 786-0 renal
- Measurement protocol: NCI tumour cell line growth inhibition, 48 h
Catalogue of TGI values
Respond numerically; units are µM and should not be typed.

# example entries with known answers
>>> df
                                   compound  reported_result
0  O=[N+]([O-])c1c(Br)cc(Br)c2c1Nc1c(ccc(Cl)c1Cl)S2             22.8
1  O=[N+]([O-])c1ccc(S(=O)Cc2ccccc2)c([N+](=O)[O-])c1 (centres undefined)             17.3

CC(C)CNCC(O)COc1ccc(C(C)(C)c2ccc(OCC(O)CNCC(C)C)cc2)cc1 (centres undefined) tested on 786-0 renal gave TGI: 3.03
